FYI, the data here is from patent US9828379B2.

// inhibition at 1 µM lookup, one value per entry
# Target System: FAAH (Mus musculus)
# Sequence (O08914 whole entry): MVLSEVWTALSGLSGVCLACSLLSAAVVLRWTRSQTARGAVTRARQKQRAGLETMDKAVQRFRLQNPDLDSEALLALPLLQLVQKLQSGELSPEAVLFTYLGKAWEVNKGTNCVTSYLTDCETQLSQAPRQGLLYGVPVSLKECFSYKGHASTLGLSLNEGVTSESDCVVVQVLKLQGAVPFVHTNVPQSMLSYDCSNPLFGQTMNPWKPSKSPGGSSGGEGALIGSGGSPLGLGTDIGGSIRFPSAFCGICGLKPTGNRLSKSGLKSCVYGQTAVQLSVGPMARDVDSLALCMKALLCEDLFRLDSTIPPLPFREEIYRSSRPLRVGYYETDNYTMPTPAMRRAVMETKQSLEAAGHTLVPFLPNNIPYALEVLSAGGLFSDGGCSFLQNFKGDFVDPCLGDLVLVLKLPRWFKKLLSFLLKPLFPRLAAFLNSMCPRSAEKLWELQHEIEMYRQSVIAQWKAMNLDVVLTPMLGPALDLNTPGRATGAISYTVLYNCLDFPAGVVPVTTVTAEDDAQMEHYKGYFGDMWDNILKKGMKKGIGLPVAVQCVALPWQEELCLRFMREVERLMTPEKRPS
# Experiment: In vitro competitive activity-based protein profiling (Table 2, % inhibition at 1 μM)
# Type: biochemical
# Run Parameters: read-out: % Inhibition at 1 μM FAAH
Measure: inhibition at 1 µM

| Compound | Result |
| --- | --- |
| O=C(OC(C(F)(F)F)C(F)(F)F)N1CC2CN(Cc3ccc(Cl)cc3N3CCC4(CCOCC4)C3)CC2C1 (stereo not shown) [Example 31] | < 25% |
| CCN1CCN(c2cccc(CN3CC4CN(C(=O)ON5C(=O)CCC5=O)CC4C3)c2C)CC1 (stereo not shown) [Example 146] | < 25% |
| Cc1cc(CN2CC3CN(C(=O)OC(C(F)(F)F)C(F)(F)F)CC3C2)n(C2CCCCC2)n1 (stereo not shown) [Example 58] | < 25% |
| CCn1cc(CN2CC3CN(C(=O)OC(C(F)(F)F)C(F)(F)F)CC3C2)c(-c2ccncc2)n1 (stereo not shown) [Example 72] | < 25% |
| O=C(ON1C(=O)CCC1=O)N1CC2CN(Cc3ccc(Cl)cc3N3CCCC3)CC2C1 (stereo not shown) [Example 94] | 25 to 75% |
| CC(=O)N1CCC(c2nn(C)cc2CN2CC3CN(C(=O)ON4C(=O)CCC4=O)CC3C2)CC1 (stereo not shown) [Example 116] | < 25% |
| Cc1c(CN2CC3CN(C(=O)ON4C(=O)CCC4=O)CC3C2)cccc1N1CCC(F)(F)CC1 (stereo not shown) [Example 144] | > 75% |
| CC(C)c1cc(CN2CC3CN(C(=O)ON4C(=O)CCC4=O)CC3C2)n(C2CCOCC2)n1 (stereo not shown) [Example 124] | < 25% |
| Cc1c(CN2CC3CN(C(=O)OC(C(F)(F)F)C(F)(F)F)CC3C2)cccc1N1CCC2(CCOC2)C1 (stereo not shown) [Example 46] | 25 to 75% |
| CC(C)c1cc(CN2CC3CN(C(=O)OC(C(F)(F)F)C(F)(F)F)CC3C2)n(C2CCCCC2)n1 (stereo not shown) [Example 61] | < 25% |
| Cc1ccc(CN2CC3CN(C(=O)OC(C(F)(F)F)C(F)(F)F)CC3C2)c(-c2ccccc2)c1 (stereo not shown) [Example 207] | < 25% |
| CCn1cc(CN2CC3CN(C(=O)OC(C(F)(F)F)C(F)(F)F)CC3C2)c(-c2ccccc2N2CCOCC2)n1 (stereo not shown) [Example 131] | < 25% |
| CC(C)c1cc(CN2CC3CN(C(=O)ON4C(=O)CCC4=O)CC3C2)n(C2CCCCC2)n1 (stereo not shown) [Example 123] | < 25% |
| CCn1ncc(CN2CC3CN(C(=O)OC(C(F)(F)F)C(F)(F)F)CC3C2)c1C(=O)NCC1CC1 (stereo not shown) [Example 179] | < 25% |
| CCn1ncc(CN2CC3CN(C(=O)OC(C(F)(F)F)C(F)(F)F)CC3C2)c1C(=O)NCC1CCOCC1 (stereo not shown) [Example 181] | < 25% |
| CC1COCCN1c1ccc(CN2CC3CN(C(=O)OC(C(F)(F)F)C(F)(F)F)CC3C2)c(Cl)c1 (stereo not shown) [Example 27] | 25 to 75% |
| CC(=O)N1CCN(c2cc(F)ccc2CN2CC3CN(C(=O)OC(C(F)(F)F)C(F)(F)F)CC3C2)CC1 (stereo not shown) [Example 17] | 25 to 75% |
| CCn1ncc(CN2CC3CN(C(=O)OC(C(F)(F)F)C(F)(F)F)CC3C2)c1C(=O)NC1CC1 (stereo not shown) [Example 74] | < 25% |
| O=C(OC(C(F)(F)F)C(F)(F)F)N1CC2CN(Cc3ccc(Cl)cc3N3CCn4ncnc4C3)CC2C1 (stereo not shown) [Example 34] | 25 to 75% |
| O=C(ON1C(=O)CCC1=O)N1CC2CN(Cc3ccc(Cl)cc3N3CCC(C(=O)N4CCCC4)CC3)CC2C1 (stereo not shown) [Example 111] | < 25% |
| O=C(OC(C(F)(F)F)C(F)(F)F)N1CC2CN(Cc3ccc(C(F)F)cc3N3CCCCC3)CC2C1 (stereo not shown) [Example 204] | < 25% |
| O=C(OC(C(F)(F)F)C(F)(F)F)N1CC2CN(Cc3cccc(C(F)(F)F)c3N3CCOCC3)CC2C1 (stereo not shown) [Example 45] | < 25% |
